Readings of Ratio IC50 for the listed compounds
Species: Homo sapiens
TEST: Selectivity index, ratio of IC50 for recombinant human MAO-A to IC50 for recombinant human MAO-B
TEST READOUT: Ratio IC50

INSERT INTO assay_data (structure_smiles_string, result) VALUES
  ('NCCc1ccc(OCc2ccccc2C(F)(F)F)cc1', '> 55'),
  ('NC(=O)c1ccc(OCc2ccccc2F)cc1', '> 95'),
  ('NCCc1ccc(-c2ccc(Cl)cc2)cc1', '> 16'),
  ('NCc1ccc(OCc2ccc(Cl)cc2)cc1', '> 68'),
  ('NCc1ccc(OCc2cccc(Cl)c2)cc1', '> 380'),
  ('NCCc1ccc(-c2ccc(C(F)(F)F)cc2)cc1', '> 240'),
  ('NCc1ccc(OCc2ccccc2F)cc1', '> 68'),
  ('NCCc1ccc(OCc2ccccc2F)cc1', '> 25'),
  ('NC(=O)c1ccc(OCc2ccccc2C(F)(F)F)cc1', '> 49'),
  ('COc1cccc(COc2ccc(CCN)cc2)c1', '> 33'),
  ('NCCc1ccc(OCc2cccc(Cl)c2)cc1', '> 1600'),
  ('NCCc1ccc(OCc2ccccc2Cl)cc1', '> 3.5'),
  ('NC(=O)c1ccc(OCc2cccc(C(F)(F)F)c2)cc1', '> 90'),
  ('COc1ccc(-c2ccc(CCN)cc2)cc1', '> 1.7'),
  ('Cl.NCCc1ccc(OCc2ccc(C(F)(F)F)cc2)cc1', '> 11000'),
  ('NC(=O)c1ccc(OCc2ccc(F)cc2)cc1', '> 360'),
  ('NCCc1ccc(-c2ccccc2Cl)cc1', '> 1.2'),
  ('NCCc1ccc(OCc2cccc(C(F)(F)F)c2)cc1', '> 900'),
  ('Nc1ccc(OCc2cccc(C(F)(F)F)c2)cc1', '> 66'),
  ('NCCc1ccc(OCc2ccc(Cl)cc2)cc1', '> 1600'),
  ('NCc1ccc(OCc2ccccc2)cc1', '> 31'),
  ('NCCc1ccc(-c2cccc(C(F)(F)F)c2)cc1', '> 6.4');

###

TARGET UNDER TEST: Amine oxidase [flavin-containing] A (Homo sapiens)
Sequence (P21397 whole entry): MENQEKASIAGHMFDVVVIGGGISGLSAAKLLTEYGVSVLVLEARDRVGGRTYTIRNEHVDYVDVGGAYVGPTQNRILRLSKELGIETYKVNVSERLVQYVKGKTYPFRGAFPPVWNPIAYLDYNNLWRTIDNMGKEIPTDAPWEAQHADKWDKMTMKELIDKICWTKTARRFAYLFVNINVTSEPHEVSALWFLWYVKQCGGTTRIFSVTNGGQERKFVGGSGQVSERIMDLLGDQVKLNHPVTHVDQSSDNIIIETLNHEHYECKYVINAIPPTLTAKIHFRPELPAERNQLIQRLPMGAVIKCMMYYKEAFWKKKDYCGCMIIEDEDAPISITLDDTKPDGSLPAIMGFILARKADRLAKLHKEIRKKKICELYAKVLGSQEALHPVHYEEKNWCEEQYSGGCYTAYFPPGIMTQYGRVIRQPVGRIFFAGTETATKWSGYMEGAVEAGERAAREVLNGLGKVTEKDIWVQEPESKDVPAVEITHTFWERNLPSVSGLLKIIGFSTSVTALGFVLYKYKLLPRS
TEST: Inhibition of recombinant human MAO-A using p-tyramine as substrate preincubated for 15 mins followed by substrate addition measured after 20 mins by amplex red reagent based spectrophotometric assay
TEST READOUT: IC50

INSERT INTO measurements (structure_smiles_string, target_under_test, test_readout, result) VALUES
  ('NCc1ccc(OCc2cccc(F)c2)cc1', 'Amine oxidase [flavin-containing] A (Homo sapiens)', 'IC50', '> 100 µM'),
  ('NCCc1ccc(-c2ccc(F)cc2)cc1', 'Amine oxidase [flavin-containing] A (Homo sapiens)', 'IC50', '> 10 µM'),
  ('NCCc1ccc(-c2ccccc2Cl)cc1', 'Amine oxidase [flavin-containing] A (Homo sapiens)', 'IC50', '> 10 µM'),
  ('Nc1ccc(OCc2ccc(C(F)(F)F)cc2)cc1', 'Amine oxidase [flavin-containing] A (Homo sapiens)', 'IC50', '> 100 µM'),
  ('Nc1ccc(OCc2ccccc2C(F)(F)F)cc1', 'Amine oxidase [flavin-containing] A (Homo sapiens)', 'IC50', '> 100 µM'),
  ('NC(=O)c1ccc(OCc2cccc(F)c2)cc1', 'Amine oxidase [flavin-containing] A (Homo sapiens)', 'IC50', '> 100 µM');

These entries and their values trace back to ChEMBL document CHEMBL4177719.
